Cited source for all entries: patent US20240360228A1

Test system: T1, human CCR8 (human, UniProt P51685 1-355)
T1 construct: Native CCR8 on human PBMC (CCR8+ CD3+ or CCR8+ CD4+ lymphocytes); also called chemokine (C-C motif) receptor 8
T1 sequence (P51685 whole entry): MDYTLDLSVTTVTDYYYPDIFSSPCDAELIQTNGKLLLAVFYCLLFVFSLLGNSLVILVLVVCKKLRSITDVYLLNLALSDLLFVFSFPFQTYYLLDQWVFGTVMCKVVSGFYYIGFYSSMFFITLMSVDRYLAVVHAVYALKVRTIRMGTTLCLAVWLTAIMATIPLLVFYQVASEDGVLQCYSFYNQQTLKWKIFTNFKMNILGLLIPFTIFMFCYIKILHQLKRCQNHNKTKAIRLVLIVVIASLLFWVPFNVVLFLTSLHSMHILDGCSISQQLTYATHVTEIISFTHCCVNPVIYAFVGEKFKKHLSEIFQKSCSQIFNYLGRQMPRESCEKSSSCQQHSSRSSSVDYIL
Assay remarks: flow blocking, PBMC CCR8+CD4+; competitor PE-AB6
Reported metric: % Positive cells
State the value, then name its unit.

INPUT: Could you share which % Positive cells value was measured for AB11 (antibody, V domains shown, Hybridoma monoclonal; also called antibody 11; clone 11) VH: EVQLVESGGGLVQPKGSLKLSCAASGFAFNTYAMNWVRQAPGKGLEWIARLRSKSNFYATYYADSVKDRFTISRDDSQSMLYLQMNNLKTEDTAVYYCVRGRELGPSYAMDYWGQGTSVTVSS VL: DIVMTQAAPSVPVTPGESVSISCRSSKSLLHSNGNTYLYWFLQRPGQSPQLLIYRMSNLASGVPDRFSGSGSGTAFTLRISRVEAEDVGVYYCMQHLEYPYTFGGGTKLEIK ?
OUTPUT: 2.13%
